All figures here come from ChEMBL document CHEMBL1201862.

# System: OVCAR-4
# experimental.protocol: NCI tumour cell line growth inhibition, 48 h
The source made the active and inactive calls. No stated cut-off is given here; in the data, active = GI50 up to about 1.1 µM and inactive = higher.
Possible outcomes: T for active, F for inactive

>>> category_label("COc1cc2c(c(OC)c1OC)-c1ccc(OC)c(=O)cc1[C@@H](N(C)C=O)CC2")
"F"
>>> category_label("COc1c2occc2c(N)c2ccc(=O)oc12")
"F"
>>> category_label("CC(C)(C)c1ccc(O)c(CN(Cc2cc(C(C)(C)C)ccc2O)c2ccccc2)c1")
"F"
>>> category_label("O=C1/C(=C/c2cccs2)NC(=S)N1CN1CCCC(CO)C1 (stereo unspecified)")
"F"
>>> category_label("CC1OC(OC2C(O[C@@H]3C[C@@H]4CC[C@@H]5[C@H](CC[C@]6(C)[C@@H]7[C@H](C[C@@H]56)O[C@]5(CC[C@@H](C)CO5)[C@H]7C)[C@@]4(C)C[C@H]3O)OC(CO)C(OC3OC(CO)C(O)C(O)C3O)C2O)C(O)C(O)C1O (stereo partly specified)")
"F"
>>> category_label("CC(C)(Br)C(=O)/C=C/c1ccccc1")
"F"
>>> category_label("Cn1ncc(NCCn2cnc3c2c(=O)n(C)c(=O)n3C)c(Cl)c1=O")
"F"
>>> category_label("Cc1c2cnccc2c(C)c2c1c1ccccc1n2CCCN")
"T"
>>> category_label("NC(Cc1ccc(CP(=O)(O)O)cc1)C(=O)O (stereo unspecified)")
"F"
>>> category_label("CCN1CCC(O)(/C=C/c2ccc(Cl)cc2)C(C(=O)/C=C/c2ccc(Cl)cc2)C1 (stereo unspecified)")
"F"
>>> category_label("CC(C)(C)OC(=O)N(CCCCNCc1ccc2ccccc2c1)CCCNCc1ccc2ccccc2c1")
"F"
